test system: human peripheral blood mononuclear cells (hPBMC); assay: human PBMC assay, Example 7 (oligo 20 μg/ml, cPLGA 100 μg/ml); type: cell-based; conditions: mean of donors 28115-28118
For each entry below, report its IFN-γ Mean value.

Please report the measured IFN-γ Mean for 5′-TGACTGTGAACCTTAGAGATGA-3′ (DNA, all phosphorothioate, methylation of C not given here) [ISS−, reference compound]
98 pg/mL

Please supply the value of reported IFN-γ Mean for the item 5′-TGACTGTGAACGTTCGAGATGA-3′ [ISS+, reference compound]
206 pg/mL

Please look at this substance and report its IFN-γ Mean: 5′-TCCTTT-3′ [Oligonucleotide 6-20, reference compound]
5 pg/mL

Dear colleague, please send me the reported IFN-γ Mean for 5′-TCGTTT-3′ [Oligonucleotide 6-2] when you can.
2 pg/mL

Retrieve IFN-γ Mean measured for 5′-UCGTTT-3′ [Oligonucleotide 6-21] and print it.
8 pg/mL

Please look at this substance and report its IFN-γ Mean: 5′-AATCGT-3′ [Oligonucleotide 6-25]
7 pg/mL
